This collection of values is drawn from PubChem BioAssay (EPA / NIEHS).

# TEST TARGET: CCAAT/enhancer-binding protein beta (Homo sapiens) (UniProt P17676)
# Sequence (P17676 whole entry, looked up): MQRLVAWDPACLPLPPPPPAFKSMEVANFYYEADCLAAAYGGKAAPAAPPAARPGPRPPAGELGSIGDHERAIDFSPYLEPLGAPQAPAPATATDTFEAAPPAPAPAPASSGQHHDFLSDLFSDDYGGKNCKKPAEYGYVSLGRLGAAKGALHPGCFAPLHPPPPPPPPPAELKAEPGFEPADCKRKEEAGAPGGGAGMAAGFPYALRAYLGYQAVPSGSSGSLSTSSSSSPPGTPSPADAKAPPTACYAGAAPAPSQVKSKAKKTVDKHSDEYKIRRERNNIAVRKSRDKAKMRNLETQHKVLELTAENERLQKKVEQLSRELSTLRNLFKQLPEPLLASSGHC
# EXPERIMENT: ATG_C_EBP_CIS: Attagene CIS-FACTORIAL HepG2 Assay for human CCAAT/Enhancer Binding Protein (C/EBP) beta (AID 2282927)
# CONDITION DESCRIPTION: HepG2 Attagene cis-factorial transcription factor reporter; actives raise or lower the signal
Active and inactive are the calls of the source. Rule for the calls: active = hit-call score of the fitted dose curve at least 0.9, where 1 is the maximum; inactive = score below 0.9.
Allowed answers: active, inactive

Fill in: this test's call for `CCCCCCOC(=O)c1ccccc1C(=O)OCCCCCC` is ___
inactive

Fill in: this test's call for `N#Cc1ccc(N(CC(N)=O)CC(F)(F)F)cc1C(F)(F)F` is ___
inactive

Fill in: this test's call for `Cc1cc(O)ccc1Cl` is ___
inactive

Fill in: this test's call for `Clc1ccc(C(Cl)(Cl)Cl)cc1` is ___
inactive

Fill in: this test's call for `COS(=O)(=O)OC` is ___
inactive

Fill in: this test's call for `O=S(=O)(O)C(F)(F)C(F)(F)C(F)(F)C(F)(F)F` is ___
inactive

Fill in: this test's call for `Sc1ccccc1` is ___
inactive

Fill in: this test's call for `C=CC(=O)NCNC(=O)C=C` is ___
inactive

Fill in: this test's call for CCC(C)c1cc([N+](=O)[O-])cc([N+](=O)[O-])c1O (stereo not given) is ___
active

Fill in: this test's call for `ClC1=C(Cl)[C@]2(Cl)[C@@H]3[C@H]4C[C@H]([C@@H]5O[C@H]45)[C@@H]3[C@@]1(Cl)C2(Cl)Cl` is ___
inactive

Fill in: this test's call for `O=S(=O)(O)C(F)(F)C(F)(F)C(F)(F)C(F)(F)C(F)(F)C(F)(F)F` is ___
inactive

Fill in: this test's call for `CCCN(CCC)N=O` is ___
inactive

Fill in: this test's call for `CCCCCCCCOC(=O)c1ccccc1C(=O)OCCCCCCCC` is ___
inactive

Fill in: this test's call for `O=C(NC(=O)c1cc(F)c(F)cc1Cl)Nc1cc(F)ccc1N1CCC(C(=O)O)CC1` is ___
inactive

Fill in: this test's call for `CCC(C)(CC)c1cc(NC(=O)c2c(OC)cccc2OC)on1` is ___
active

Fill in: this test's call for `Oc1ccc(C(c2ccc(O)cc2)(C(F)(F)F)C(F)(F)F)cc1` is ___
inactive

Fill in: this test's call for CC(C)C(=O)OCC(C)(C)C(OC(=O)C(C)C)C(C)C (stereo not given) is ___
inactive

Fill in: this test's call for `CN(C)c1nc(=O)n(C2CCCCC2)c(=O)n1C` is ___
inactive

Fill in: this test's call for `O=C(NC(=O)c1c(F)cccc1F)Nc1cc(Cl)c(OC(F)(F)C(F)F)c(Cl)c1` is ___
inactive

Fill in: this test's call for `CC#Cc1cc(C)nc(Nc2ccccc2)n1` is ___
inactive

Fill in: this test's call for `C=CC(N)=O` is ___
inactive

Fill in: this test's call for `Cc1ccc(O)c(C)c1` is ___
inactive

Fill in: this test's call for `Cc1cccc([N+](=O)[O-])c1` is ___
inactive

Fill in: this test's call for `Cc1ccccc1[N+](=O)[O-]` is ___
inactive

Fill in: this test's call for `Cc1cc(-c2ccc(N)c(C)c2)ccc1N` is ___
inactive

* * *

# EXPERIMENT: BSK_4H_Eotaxin3: BioMAP Diversity Plus: 4H Assay for Eotaxin 3 Biomarker Activity (AID 2283000)
# CONDITION DESCRIPTION: primary human endothelial cells (HUVEC); actives raise or lower the signal
Calls of active or inactive are those of the source. How the source made its calls: active means hit-call score of the fitted dose curve at least 0.9, where 1 is the maximum; inactive means score below 0.9.
Allowed answers: TRUE for active, FALSE for inactive

Fill in: this test's call for `COS(=O)(=O)OC` is ___
FALSE

Fill in: this test's call for `O=S(=O)(O)C(F)(F)C(F)(F)C(F)(F)C(F)(F)F` is ___
FALSE

Fill in: this test's call for `CC#Cc1cc(C)nc(Nc2ccccc2)n1` is ___
FALSE

Fill in: this test's call for CC(C)C(=O)OCC(C)(C)C(OC(=O)C(C)C)C(C)C (centres undefined) is ___
FALSE

Fill in: this test's call for `Cc1cc(O)ccc1Cl` is ___
FALSE

Fill in: this test's call for `ClC1=C(Cl)[C@]2(Cl)[C@@H]3[C@@H](Cl)[C@H]4O[C@H]4[C@@H]3C1(Cl)C2(Cl)Cl` is ___
FALSE

Fill in: this test's call for CCC(C)c1cc([N+](=O)[O-])cc([N+](=O)[O-])c1O (centres undefined) is ___
TRUE

Fill in: this test's call for `Cc1ccccc1O` is ___
FALSE

Fill in: this test's call for `CC1=C2C[C@H]3[C@@H](CC=C4C[C@@H](O)CC[C@@]43C)[C@@H]2CC[C@]12O[C@@H]1C[C@H](C)CN[C@H]1[C@H]2C` is ___
FALSE

Fill in: this test's call for `CN(C)CCO` is ___
FALSE

Fill in: this test's call for `c1ccc(-c2ccccc2)cc1` is ___
FALSE

Fill in: this test's call for `C=CC(N)=O` is ___
FALSE

Fill in: this test's call for `Clc1ccc(C(Cl)(Cl)Cl)cc1` is ___
FALSE

Fill in: this test's call for `Cc1cc2c3c(c1)C(c1ccccc1)=N[C@@H](NC(=O)c1ccncc1)C(=O)N3CC2` is ___
FALSE

Fill in: this test's call for `c1cc2ccc3cccc4ccc(c1)c2c34` is ___
FALSE

Fill in: this test's call for `CC(C)(c1ccccc1)c1ccc(O)cc1` is ___
TRUE

Fill in: this test's call for `CCCCCCCCCc1ccc(O)cc1` is ___
TRUE

Fill in: this test's call for `ClC(Cl)=C(c1ccc(Cl)cc1)c1ccc(Cl)cc1` is ___
TRUE

Fill in: this test's call for `Clc1ccc(Cl)cc1` is ___
FALSE

Fill in: this test's call for C1CC2OC2CC1C1CO1 (centres undefined) is ___
FALSE

Fill in: this test's call for `CCC(=O)O[C@H]1CC[C@H]2[C@@H]3CCC4=CC(=O)CC[C@]4(C)[C@H]3CC[C@]12C` is ___
TRUE

Fill in: this test's call for `CCNc1nc(NC(C)C)nc(SC)n1` is ___
FALSE

Fill in: this test's call for `Nn1cnnc1` is ___
FALSE

Fill in: this test's call for `O=C(O)C(F)(F)C(F)(F)C(F)(F)C(F)(F)C(F)(F)F` is ___
FALSE

* * *

# Read-out: ABC Transporter (ABCB11), ABCB11 (gene 8647)
# EXPERIMENT: LTEA_HepaRG_ABCB11: Life Technologies and Expression Analysis (LTEA) Assay for ABC Transporter (ABCB11) using HepaRG (AID 2283463)
# CONDITION DESCRIPTION: mRNA level, 48 h; actives raise or lower the signal
Activity calls are given as the source filed them. How the source made its calls: active means hit-call score of the fitted dose curve at least 0.9, where 1 is the maximum; inactive means score below 0.9.
Allowed answers: label 1 = active, label 0 = inactive

Fill in: this test's call for `Cc1ccc(O)c(C)c1` is ___
label 0

Fill in: this test's call for `CC(C)(c1ccccc1)c1ccc(O)cc1` is ___
label 1

Fill in: this test's call for `ClC1=C(Cl)[C@]2(Cl)[C@@H]3[C@@H](Cl)[C@H]4O[C@H]4[C@@H]3C1(Cl)C2(Cl)Cl` is ___
label 0

Fill in: this test's call for `O=S(=O)(O)C(F)(F)C(F)(F)C(F)(F)C(F)(F)F` is ___
label 0

* * *

# EXPERIMENT: ACEA_AR_agonist_AUC_viability: ACEA Biosciences xCELLigence Real-Time Cell Analysis on Androgen Receptor Agonism for Viability (AID 2283775)
Records with an inconclusive call do not appear. Activity calls are given as the source filed them. The calls were made as follows: active = hit-call score of the fitted dose curve at least 0.9, where 1 is the maximum; inconclusive = response in the unintended direction; inactive = score below 0.9.
Allowed answers: Yes (active), No (inactive)

Fill in: this test's call for `ClC1=C(Cl)[C@]2(Cl)[C@@H]3[C@@H]4C[C@@H]([C@H]5O[C@@H]45)[C@@H]3[C@@]1(Cl)C2(Cl)Cl` is ___
Yes

Fill in: this test's call for `CN(C)CCO` is ___
No

Fill in: this test's call for `Cc1cc(O)ccc1Cl` is ___
No

Fill in: this test's call for `CC(C)(O)C(=O)Nc1ccc([N+](=O)[O-])c(C(F)(F)F)c1` is ___
Yes

Fill in: this test's call for `CCOP(=S)(OCC)SCSC(C)(C)C` is ___
Yes

Fill in: this test's call for `COS(=O)(=O)OC` is ___
No

* * *

# Read-out: Glutathione S-Transferase (GSTA2), GSTA2 (gene 2939)
# EXPERIMENT: LTEA_HepaRG_GSTA2: Life Technologies and Expression Analysis (LTEA) Assay for Glutathione S-Transferase (GSTA2) using HepaRG (AID 2283497)
# CONDITION DESCRIPTION: mRNA level, 48 h; actives raise or lower the signal
Activity calls are given as the source filed them. The calls were made as follows: active = hit-call score of the fitted dose curve at least 0.9, where 1 is the maximum; inactive = score below 0.9.
QUANTITY MEASURED: AC50

Consider the worked cases shown below.
Cc1ccccc1CO[C@@H]1C[C@@]2(C(C)C)CC[C@]1(C)O2; inactive
O=C(N[C@H]1CN2CCC1CC2)c1cc2ccoc2cn1; inactive
Clc1ccc(C(c2ccccc2Cl)C(Cl)(Cl)Cl)cc1 (centres undefined); inactive
Cc1ccc(O)c(C)c1; inactive
O=NN(c1ccccc1)c1ccccc1; inactive
ClC1=C(Cl)[C@]2(Cl)[C@@H]3[C@@H]4C[C@@H]([C@H]5O[C@@H]45)[C@@H]3[C@@]1(Cl)C2(Cl)Cl; 50 µM (active)
NS(=O)(=O)C(F)(F)C(F)(F)C(F)(F)C(F)(F)C(F)(F)C(F)(F)C(F)(F)C(F)(F)F; 13 µM (active)
Cc1cccc([N+](=O)[O-])c1; inactive

Param item = `Cc1cccc(C)c1N` ; retrieve measured AC50.
inactive

Param item = `COc1ccc(O)c(C(C)(C)C)c1` ; retrieve measured AC50.
inactive

Param item = `O=C(NC(=O)c1c(F)cccc1F)Nc1cc(Cl)c(OC(F)(F)C(F)F)c(Cl)c1` ; retrieve measured AC50.
inactive
